testedTarget: T1, prefusion stabilized SARS-CoV-2 S ectodomain (SARS-CoV-2, UniProt P0DTC2 14-1208)
T1 construct: also called SARS-CoV-2 spike ectodomain; ectodomain of the spike (S) homotrimer of SARS-CoV-2
methodSummary: ELISA, coated S ectodomain
measure: EC50 (µg/mL)
// note: answer is a bare numeric in µg/mL

Provide one value: measured EC50 of CnC2t1p1_G6 (antibody, V domains shown) VH: QVQLVQSGAEVKKPGASVKVSCKASGYIFTNYYIHWVRQAPGQGLEWVGWIHSLSGGTSYAQKFQGRVTLTRDAPIRTAYMELSGLGSDDTAVYYCARASVATITDFDYWGQGTLVAVSS VL: QSALTQPASVSGSPGQSITISCTGTSGDIGSYNLVSWYQQYPGKAPKLIIYEASKRPSGVSNRFFASKSGNTASLTISGLQAEDEADYYCCSYAGVRTVVFGGGTKLTVL
0.31

Reference source for all entries: patent US20210371503A1
